# method: self-splicing fitness, log relative to wild type (ln ratio); higher = more splicing; Tetrahymena group I intron in knt gene, E. coli kanamycin selection, DiMSum; sequences stand for … in CUCUCU…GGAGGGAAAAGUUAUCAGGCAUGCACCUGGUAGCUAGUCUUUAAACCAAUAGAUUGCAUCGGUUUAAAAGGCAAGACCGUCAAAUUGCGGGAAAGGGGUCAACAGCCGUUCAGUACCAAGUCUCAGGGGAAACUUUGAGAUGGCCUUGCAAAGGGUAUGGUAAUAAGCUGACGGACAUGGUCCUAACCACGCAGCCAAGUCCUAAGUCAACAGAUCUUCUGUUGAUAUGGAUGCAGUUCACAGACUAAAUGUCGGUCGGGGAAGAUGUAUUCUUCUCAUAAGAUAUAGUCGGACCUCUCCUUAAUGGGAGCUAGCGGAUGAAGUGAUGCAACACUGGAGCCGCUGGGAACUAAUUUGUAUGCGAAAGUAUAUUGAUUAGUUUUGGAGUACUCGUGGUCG;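 note: selection with 25 µg/mL kanamycin versus none on LB agar overnight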
# conditionSummary: 30 °C
Would you please tag the item yes (1) when its self-splicing fitness (ln) is -3 or above, and no (0) when it is below?

## Input Does "UGGGAGCAAUAUUACGACAU" have a reported self-splicing fitness (ln) of at least -3?
## Output no (0)

Continuing:
## Input Item "CAGAAGCAAUAUUACGAGCU" with self-splicing fitness (ln) of -3 or above?
## Output yes (1)

## Input Given "GUAUAGCAAUAUUACGCUAG" , state whether its self-splicing fitness (ln) is at least -3.
## Output yes (1)

## Input self-splicing fitness (ln) >= -3 for "GGGCAGCAAUAUUACGCCAG" ?
## Output yes (1)

## Input Is self-splicing fitness (ln) for "AGCAAGCAAUAUUACGACUG" at or above -3?
## Output yes (1)

----------
Recorded self-splicing fitness (ln) for the following sequences
# method: self-splicing fitness, log relative to wild type (ln ratio); higher = more splicing; Tetrahymena group I intron in knt gene, E. coli kanamycin selection, DiMSum; sequences stand for … in CUCUCU…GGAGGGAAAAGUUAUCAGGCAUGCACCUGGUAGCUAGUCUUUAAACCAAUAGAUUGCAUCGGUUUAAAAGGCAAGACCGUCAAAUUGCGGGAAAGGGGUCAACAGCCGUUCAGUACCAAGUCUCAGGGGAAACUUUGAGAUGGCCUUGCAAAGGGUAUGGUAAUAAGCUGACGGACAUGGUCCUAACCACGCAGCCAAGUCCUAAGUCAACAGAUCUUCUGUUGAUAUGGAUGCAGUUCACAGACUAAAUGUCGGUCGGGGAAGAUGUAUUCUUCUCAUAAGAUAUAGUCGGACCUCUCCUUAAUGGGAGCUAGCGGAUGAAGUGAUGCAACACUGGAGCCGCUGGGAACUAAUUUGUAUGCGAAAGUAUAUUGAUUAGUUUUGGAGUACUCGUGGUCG
# conditionSummary: 37 °C
Answer as a number with no unit attached.

## Input Name the recorded self-splicing fitness (ln) for "UACCAGCAAUAUUACGCGGG" .
## Output -1.31

## Input What value of measured self-splicing fitness (ln) is listed for "GCAAAGCAAUAUUACGCGUG" ?
## Output -1.27

## Input Which self-splicing fitness (ln) is listed for "AAUCAGCAAUAUUACGGAGA" ?
## Output -1.04

## Input Any idea what its self-splicing fitness (ln) is? The sequence is "CAGGAGCAAUAUUACGGGGU"
## Output -2.19

## Input What does the record list as self-splicing fitness (ln) for "ACCGAGCAAUAUUACGUGUA" ?
## Output -1.49

## Input Any idea what self-splicing fitness (ln) was measured for "UCUAAGCAAUAUUACGCGAC" ?
## Output -2.84

## Input Item "UCGGAGCAAUAUUACGUUGA" has what recorded self-splicing fitness (ln)?
## Output -1.22

## Input I'd like to know its self-splicing fitness (ln). The sequence in question is "AUACAGCAAUAUUACGGGUC"
## Output -2.48

Others:
## Input Consider the sequence "UUAGAGCAAUAUUACGCGAG" and give its measured self-splicing fitness (ln).
## Output -0.0681

## Input self-splicing fitness (ln) for "CCUGAGCAAUAUUACGACUU" ?
## Output -2.46

## Input # query: self-splicing fitness (ln) of entry "GUUAAGCAAUAUUACGACAU"
## Output 0.118

## Input Need self-splicing fitness (ln) of "UAAUAGCAAUAUUACGACUU" , thanks.
## Output -0.376

## Input Could you tell me which self-splicing fitness (ln) is on file for "AGCUAGCAAUAUUACGGGAC" ?
## Output -1.84

## Input // self-splicing fitness (ln) lookup, key: "CUAUAGCAAUAUUACGGUUA"
## Output -2.84

## Input self-splicing fitness (ln) for "GGGGAGCAAUAUUACGAUAU" ?
## Output -0.987

## Input So what does the record say about self-splicing fitness (ln) for "GACGAGCAAUAUUACGCUGA" ?
## Output -1.95
